Here, each record is paired with measured kon data.
Molecular target: T1, monovalent hVISTA-ECD with polyhistidine tail (SEQ ID NO: 325) (human, UniProt Q9H7M9 33-193)
T1 construct: also called hVISTA-ECD 6-His tag; human VISTA
T1 sequence (Q9H7M9 other isoform, or with tags, fused parts or gaps limits assumed): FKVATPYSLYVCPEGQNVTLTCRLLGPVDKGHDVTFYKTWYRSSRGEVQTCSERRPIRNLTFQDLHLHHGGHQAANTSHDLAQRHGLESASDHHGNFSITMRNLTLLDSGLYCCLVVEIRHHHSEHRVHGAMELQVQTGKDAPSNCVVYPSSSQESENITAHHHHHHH
Assay: SPR, mAb captured on Protein A chip, hVISTA injected, PBST pH 7.4, 37 C

{"binder": "P1-077869 (P1-068748 D57K) (antibody, V domains shown, Reversion mutant of P1-068748 (Kabat names); captured on a Protein A chip) VH: QVQLVESGGGVVQPGRSLRLSCAASGFTFSHHAMHWVRQAPGKGLEWVAIIWYDGSNKDYADSVKGRFTISRDNSKNTLYLQMNSLRAEDTAVYYCARDSGFYDSYYFDYWGQGTLVTVSS VL: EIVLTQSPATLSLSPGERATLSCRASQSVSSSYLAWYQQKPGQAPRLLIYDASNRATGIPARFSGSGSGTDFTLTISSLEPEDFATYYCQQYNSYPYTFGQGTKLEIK", "kon": "28000 M⁻¹ s⁻¹"}
{"binder": "P1-077889 (P1-068748 H32Y D58Y) (antibody, V domains shown, Reversion mutant of P1-068748 (Kabat names); captured on a Protein A chip) VH: QVQLVESGGGVVQPGRSLRLSCAASGFTFSHYAMHWVRQAPGKGLEWVAIIWYDGSNDYYADSVKGRFTISRDNSKNTLYLQMNSLRAEDTAVYYCARDSGFYDSYYFDYWGQGTLVTVSS VL: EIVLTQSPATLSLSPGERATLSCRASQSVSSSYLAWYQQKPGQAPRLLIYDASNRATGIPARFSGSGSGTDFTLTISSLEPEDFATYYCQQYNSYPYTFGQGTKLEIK", "kon": "31000 M⁻¹ s⁻¹"}
{"binder": "P1-077873 (P1-068748 D100S) (antibody, V domains shown, Reversion mutant of P1-068748 (Kabat names); captured on a Protein A chip) VH: QVQLVESGGGVVQPGRSLRLSCAASGFTFSHHAMHWVRQAPGKGLEWVAIIWYDGSNDDYADSVKGRFTISRDNSKNTLYLQMNSLRAEDTAVYYCARDSGFYSSYYFDYWGQGTLVTVSS VL: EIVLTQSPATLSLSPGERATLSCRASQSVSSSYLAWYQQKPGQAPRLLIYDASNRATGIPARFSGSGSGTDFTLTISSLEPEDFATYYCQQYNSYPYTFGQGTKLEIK", "kon": "850000 M⁻¹ s⁻¹"}
